For reference, the following IC50 results for Proto-oncogene tyrosine-protein kinase Src (Homo sapiens) were taken from various sources.

The examples below pair each entry with its known result.
>>> endpoint_value("CC#CC(C)OC(=O)Nc1cnc2[nH]c(-c3ccccc3)nc2c1 (stereo not drawn)")
"0.01 to 0.5 µM"
>>> endpoint_value("COCCOc1ccc(Nc2ncnc(Nc3cc(-c4ccco4)n[nH]3)n2)cc1OCCOC")
"0.856 to 5.13 µM"
>>> endpoint_value("CC(C)c1cc(NC(=O)Nc2ccc(Oc3ccnc(Nc4ccc5c(c4)NC(=O)C5)n3)c3ccccc23)n(-c2ccc(OCCN3CCOCC3)cc2)n1")
"< 0.001 µM"
>>> endpoint_value("N#Cc1cnc2[nH]cc(C(=O)c3cccc(NS(=O)(=O)CC(F)(F)F)c3F)c2c1")
"≤ 10 µM"

The reported value for CC(C)S(=O)(=O)Nc1ccc(F)c(C(=O)c2c[nH]c3ncc(-c4cccnc4)cc23)c1F in terms of IC50 is ≤ 10 µM

Lab note: COc1cc(Nc2ncnc(-n3cc(C)c4ccccc43)n2)cc(OC)c1OC gave IC50 of > 11.5 µM

The reported IC50 of the compound COc1cc(Nc2cc(Oc3ccc(NC(=O)Nc4cc(C(C)(C)C)cc(NS(C)(=O)=O)c4OC)c4ccccc34)ccn2)ccc1C(=O)NCCCN1CC[S+]([O-])CC1 was 0.017 µM

Reported IC50 of CS(=O)(=O)Nc1cccc(-c2cnc3[nH]cc(C(=O)c4cccc(O)c4F)c3c2)c1 : ≤ 10 µM

Noted for Nc1cccc(-n2cnc3ccccc32)c1 : its IC50 reads > 50 µM

The compound identified as Cc1ccccc1C(=O)c1c[nH]c2nccc(-c3ccc(C(N)=O)cc3)c12 registered its IC50 at ≤ 10 µM

Looking up COc1cc(Nc2cc(Oc3ccc(NC(=O)Nc4cc(C(C)(C)C)cc(P(C)(C)=O)c4OC)c4ccccc34)ccn2)cc(C(N)=O)c1 , I found its IC50 recorded as 0.032 µM

What the record says about O=C1NC(=O)C2=C1c1cn(c3ccccc13)CCCCCCn1cc2c2ccccc21 : IC50 is > 100 µM

====

From various publications: IC50 for Proto-oncogene tyrosine-protein kinase Src (Homo sapiens, UniProt P12931).
// NB: equality with 100 nM counts as Not fulfilled; only IC50 strictly below is Fulfilled

>>> label("CC(C)(C)c1cc(NC(=O)Nc2ccc(Oc3ccnc(Nc4ccc5[nH]ncc5c4)n3)c3ccccc23)n(-c2ccc(=O)n(CCN3CCOCC3)c2)n1")
"Fulfilled"
>>> label("COCCOCCOCCNC(=O)c1cc(Nc2cc(Oc3ccc(NC(=O)Nc4cc(C(C)(C)C)cc([S+](C)[O-])c4OC)c4ccccc34)ccn2)cc(OC)c1 (centres unmarked)")
"Fulfilled"
>>> label("COCCNC(=O)c1cnc(Nc2cc(COc3ccc(NC(=O)Nc4cc(C(C)(C)C)nn4-c4csc(C)c4)c4ccccc34)ccn2)cn1")
"Not fulfilled"
>>> label("COc1cccc(Nc2nc3ccccc3n2-c2ncnc(Nc3cc(OC)c(OC)c(OC)c3)n2)c1")
"Not fulfilled"
>>> label("COc1ccc(Cl)c(N2C(=O)Nc3c(C(=O)Nc4ccc(CN5CCOCC5)cc4)sc4ncnc2c34)c1")
"Not fulfilled"

Q: Answer whether the compound COc1cc(Nc2cc(Oc3ccc(NC(=O)Nc4cc(C(C)(C)C)cc(NS(C)(=O)=O)c4OC)c4ccccc34)ccn2)ccc1C(=O)NCCN1CCOCC1 has IC50 strictly less than 100 nM
Ans: Fulfilled

Q: Identify whether the compound Cn1c(=O)c(-c2c(Cl)cccc2Cl)cc2cnc(NCCCn3ccnc3)cc21 records IC50 below 100 nM.
Ans: Not fulfilled

Q: Given the entry COc1ccc(-n2nc(C(C)(C)C)cc2NC(=O)Nc2ccc(Oc3ccnc(Nc4ccc5[nH]ccc5c4)n3)c3ccccc23)cc1 , would its reported IC50 be below 100 nM?
Ans: Fulfilled
